- experiment: Biodistribution in ICR mice after an iv injection
- Assay type: in vivo
- measurement.parameters: Spleen, 30 min after iv injection
- From the text: Biodistribution in ICR Mice After an iv Injection of [^18F][4-(6-{2-[2-(2-Fluoro-ethoxy)-ethoxy]-ethoxy}-naphthalen-2-yl)-phenyl]-methyl-amine in 1% EtOH/0.1% BSA in Water (% dose/organ, avg of 3 mice±SD) (% dose/g, avg of 3 mice±SD) Biodistribution in ICR Mice After an iv Injection of [^18F]19a in 3% EtOH/0.1% BSA in Water Biodistribution in ICR Mice After an iv Injection of [^18F]34a in 5% EtOH/0.1% BSA in Water […]
property.name: % dose/g (% dose/g)
One number for each entry, in % dose/g.

compound="CNc1ccc2cc(-c3ccc(OCCOCCOCC[18F])cc3)ccc2c1 [[^18F]19a]" unit_spec="% dose/g" recorded_number=5.03

Batch lookup, % dose/g per entry.
1. CN(C)c1ccc(-c2ccc3nc(OCCOCCOCC[18F])ccc3c2)cc1 [[^18F]32a]
2. CNc1ccc(-c2ccc3nc(OCCOCCOCC[18F])ccc3c2)cc1 [[^18F]34a]
3. CNc1ccc(-c2ccc3cc(OCCOCCOCCF)ccc3c2)cc1

Response:
1.56
2.16
2.12

* * *

Kindly state % dose/organ for each of the entries shown.
- experiment: Biodistribution in ICR mice after an iv injection
- Assay type: in vivo
- measurement.parameters: Heart, 30 min after iv injection
Give bare numbers, in % dose/organ.

molecule="CNc1ccc(-c2ccc3nc(OCCOCCOCC[18F])ccc3c2)cc1 [[^18F]34a]" property_name="% dose/organ" recorded_number=0.36
molecule="CNc1ccc2cc(-c3ccc(OCCOCCOCC[18F])cc3)ccc2c1 [[^18F]19a]" property_name="% dose/organ" recorded_number=0.21
molecule="CN(C)c1ccc(-c2ccc3nc(OCCOCCOCC[18F])ccc3c2)cc1 [[^18F]32a]" property_name="% dose/organ" recorded_number=0.26

Pending molecule:
Request: Identify the reported % dose/organ for the following entry. "CNc1ccc(-c2ccc3cc(OCCOCCOCCF)ccc3c2)cc1"
Response: 0.23

* * *

- experiment: Biodistribution in ICR mice after an iv injection
- Assay type: in vivo
- measurement.parameters: Lung, 30 min after iv injection
- Excerpt: Biodistribution in ICR Mice After an iv Injection of [^18F][4-(6-{2-[2-(2-Fluoro-ethoxy)-ethoxy]-ethoxy}-naphthalen-2-yl)-phenyl]-methyl-amine in 1% EtOH/0.1% BSA in Water (% dose/organ, avg of 3 mice±SD) (% dose/g, avg of 3 mice±SD) Biodistribution in ICR Mice After an iv Injection of [^18F]19a in 3% EtOH/0.1% BSA in Water Biodistribution in ICR Mice After an iv Injection of [^18F]34a in 5% EtOH/0.1% BSA in Water […]
property.name: % dose/g (% dose/g)
Answers are plain numbers, in % dose/g.

compound=CNc1ccc(-c2ccc3cc(OCCOCCOCCF)ccc3c2)cc1 recorded_number=2.78
compound="CN(C)c1ccc(-c2ccc3nc(OCCOCCOCC[18F])ccc3c2)cc1 [[^18F]32a]" recorded_number=2.31
compound="CNc1ccc(-c2ccc3nc(OCCOCCOCC[18F])ccc3c2)cc1 [[^18F]34a]" recorded_number=2.87

Request: Identify the reported % dose/g for the following entry. CNc1ccc2cc(-c3ccc(OCCOCCOCC[18F])cc3)ccc2c1 [[^18F]19a]
Response: 3.44
